- Tested target: T1, CRBN, Q96SW2;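 further: pooled lentiviral library of zinc finger degron-EGFP fusions in mCherry-positive Jurkat cells, FACS-sorted after compound exposure, with degron abundance counted by next-generation sequencing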
- T1 chain: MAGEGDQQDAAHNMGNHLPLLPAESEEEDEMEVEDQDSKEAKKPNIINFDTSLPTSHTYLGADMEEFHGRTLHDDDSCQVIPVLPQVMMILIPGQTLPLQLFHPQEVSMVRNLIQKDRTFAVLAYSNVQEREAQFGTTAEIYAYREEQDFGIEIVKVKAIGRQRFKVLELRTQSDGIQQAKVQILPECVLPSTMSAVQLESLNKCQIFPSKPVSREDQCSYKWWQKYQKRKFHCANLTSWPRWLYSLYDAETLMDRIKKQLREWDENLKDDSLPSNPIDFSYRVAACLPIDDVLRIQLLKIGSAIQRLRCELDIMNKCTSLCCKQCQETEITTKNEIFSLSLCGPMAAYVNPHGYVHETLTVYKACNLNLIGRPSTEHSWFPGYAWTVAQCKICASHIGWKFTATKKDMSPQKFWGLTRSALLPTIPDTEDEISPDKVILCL
- Assay: log2 fold change of degron read counts, EGFP-low vs EGFP+ sorted cells (limma voom), compound-induced degradation; higher = more compound-induced degradation of the degron-EGFP fusion; degrons are variants of IKZF1/3 zinc finger 2; compound dose not given here
- Assay conditions: Jurkat; 18 h; compound: compound 33 (diphenyl IMiD analogue)
The full ranking holds about 8,300 sequences; the median of “log2 fold change of degron read counts, EGFP-low vs EGFP+ sorted cells (limma voom), compound-induced degradation” is about -1.1, and the highest 2% start at about 3.2. What follows is part of a selection rich in the highest values, with near analogues and random picks from the rest.
Exercise: state measured log2 fold change of degron read counts for each of the sequences provided.
One number for each entry.

Please review the entries below; each comes with its answer.
FDCEVCGAGFTQKGNLLRHIKL [46F_47D_49E_50V_52G_53A_54G_55F_67L_, Q9UKT9]    -1.35
FHCEVCGAGFTQKGNLLRHIKL [46F_47H_49E_50V_52G_53A_54G_55F_67L_, Q9UKT9]    2.01
FLCEVCGAGFTQKGNLLRHIKL [46F_47L_49E_50V_52G_53A_54G_55F_67L_, Q9UKT9]    1.42
FFCDICGAQFTQKGNLLRHIKL [46F_47F_49D_50I_52G_53A_54Q_55F_67L_, Q9UKT9]    1.67
FECEVCGAGFTQKGNLLRHIKL [46F_47E_49E_50V_52G_53A_54G_55F_67L_, Q9UKT9]    0.852
LTCEICGFICTQKGNLLRHIKL [46L_47T_49E_50I_52G_53F_54I_55C_67L_, Q9UKT9]    0.241
FICEVCGAGFTQKGNLLRHIKL [46F_47I_49E_50V_52G_53A_54G_55F_67L_, Q9UKT9]    2.12
FTCDVCGATFTQKGNLLRHIKL [46F_47T_49D_50V_52G_53A_54T_55F_67L_, Q9UKT9]    0.357

Return reported log2 fold change of degron read counts values for all items listed beneath this line.
1. FTCDICGAQFTQKGNLLRHIKL [46F_47T_49D_50I_52G_53A_54Q_55F_67L_, Q9UKT9]
2. FGCEVCGAGFTQKGNLLRHIKL [46F_47G_49E_50V_52G_53A_54G_55F_67L_, Q9UKT9]
3. FVCPQCGAFFTQKGNLLRHIKL [46F_47V_49P_50Q_52G_53A_54F_55F_67L_, Q9UKT9]
4. FECPICGHPFTQKGNLLRHIKL [46F_47E_49P_50I_52G_53H_54P_55F_67L_, Q9UKT9]
5. FFCEVCGAGFTQKGNLLRHIKL [46F_47F_49E_50V_52G_53A_54G_55F_67L_, Q9UKT9]
6. FYCDICGAQFTQKGNLLRHIKL [46F_47Y_49D_50I_52G_53A_54Q_55F_67L_, Q9UKT9]
7. FDCDICGAQFTQKGNLLRHIKL [46F_47D_49D_50I_52G_53A_54Q_55F_67L_, Q9UKT9]

[1.33, 0.538, -0.515, -0.989, 1.51, 2.11, -1.71]

Ref: the supplement of paper PMC12645437
